- protocol_text: Cytotoxicity against HUVEC cells assessed as inhibition of cell growth by MTT assay
- measurement_setup: human
IC50 listing for selected compounds.
Reply with just the number (in µM).

>>> result("O=C(CCCCCCNc1nc2ccccc2nc1-c1nc2ccccc2o1)NO")
19.1

Q) Find the recorded IC50 belonging to O=C(CCCNc1nc2ccccc2nc1-c1nc2ccccc2o1)NO and report it.
A) 24

###

- target_system: Histone deacetylase 2 (Homo sapiens, UniProt Q92769)
- Sequence (Q92769 whole entry): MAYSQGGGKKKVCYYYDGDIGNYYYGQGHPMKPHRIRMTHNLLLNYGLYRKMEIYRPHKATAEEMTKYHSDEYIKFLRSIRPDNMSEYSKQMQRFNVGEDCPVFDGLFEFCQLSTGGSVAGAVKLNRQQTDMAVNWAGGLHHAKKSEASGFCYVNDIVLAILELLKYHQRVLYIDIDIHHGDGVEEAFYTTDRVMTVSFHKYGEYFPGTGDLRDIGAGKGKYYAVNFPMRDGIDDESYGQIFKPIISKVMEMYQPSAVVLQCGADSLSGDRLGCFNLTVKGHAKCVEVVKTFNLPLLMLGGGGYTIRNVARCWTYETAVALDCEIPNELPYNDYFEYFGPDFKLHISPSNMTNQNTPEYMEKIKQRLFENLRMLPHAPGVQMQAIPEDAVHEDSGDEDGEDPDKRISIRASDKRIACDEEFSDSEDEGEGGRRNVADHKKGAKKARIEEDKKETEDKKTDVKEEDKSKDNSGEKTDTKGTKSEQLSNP
assay_endpoint: pIC50
Note on pIC50: it is the negative log10 of concentration, concentration in mol/L.

Q) pIC50 of O=C(CCCCCCNc1nc2ccccc2nc1-c1nc2ccccc2o1)NO on Histone deacetylase 2 (Homo sapiens, UniProt Q92769)?
A) 7.46
